Every entry's value here was drawn from ChEMBL document CHEMBL3098125.

# assay method text: Therapeutic index, ratio of CC50 for human TZM-bl cells to IC50 for HIV1 NL4.3 infected in human TZM-bl cells
# Assay type: cell-based
# condition description: HIV1 NL4.3 infected TZM-bl cells, read-out: Ratio CC50/IC50
endpoint: selectivity ratio
Please reply with the value in numeric form only.

Solved entries:
INSERT INTO measurements (compound, measured) VALUES
  ('COC(=O)C12C=CC(=O)C(O)=C1CC=C(C)C2C/C=C(\C)C=O (stereo not given)', 10),
  ('COC(=O)C12C=CC(=O)C(O)=C1CC=C(C)C2CC=C(C)C (stereo not given)', 11),
  ('COC(=O)C12C=CC(=O)C(O)=C1CC(CC/C=C(\C)C=O)=CC2 (stereo not given)', 4),
  ('COC(=O)C12C=CC(=O)C(OC(C)=O)=C1CC=C(C)C2CC=C(C)C (stereo not given)', 18);

Shifting focus to the compound that follows.
Query COC(=O)C12C=CC(=O)C(O)=C1CC=C(C)C2C/C=C(\C)CO (stereo not given) yields selectivity ratio of 13
